measure name: pKi
// field semantics: pKi = negative decimal log of concentration (mol/L)

Ask: Request - read-out pKi | tested on UniProt P41144 | molecule Cn1c2c(c3c1[C@@H]1Oc4c(O)ccc5c4[C@@]14CCN(CC1CC1)[C@H](C5)[C@]4(O)C3)CCCC2
Reply: 6.69

Ask: Request - read-out pKi | tested on UniProt P41144 | molecule Oc1ccc2c3c1O[C@H]1c4nc5ccccc5nc4C[C@@]4(O)[C@@H](C2)N(CC2CC2)CC[C@]314
Reply: 6.72

Ask: Request - read-out pKi | tested on UniProt P41144 | molecule Oc1ccc2c3c1O[C@H]1C(c4ccccc4)=CC[C@@]4(O)[C@@H](C2)N(CC2CC2)CC[C@]314
Reply: 11.00

Ask: Request - read-out pKi | tested on UniProt P41144 | molecule Oc1ccc2c3c1O[C@H]1c4oc5ccccc5c4C[C@@]4(O)[C@@H](C2)N(CC2CC2)CC[C@]314
Reply: 6.81

---

Answer each item with its documented Ki.
The response must be a number in nM with no trailing unit.

Ask: Request - read-out Ki | tested on Mu-type opioid receptor (Cavia porcellus, UniProt P97266) | compound Oc1ccc2c3c1O[C@H]1c4nc5ccccc5nc4C[C@@]4(O)[C@@H](C2)N(CC2CC2)CC[C@]314
Reply: 7.3

Ask: Request - read-out Ki | tested on Mu-type opioid receptor (Cavia porcellus, UniProt P97266) | compound Oc1ccc2c3c1O[C@H]1C(c4ccccc4)=CC[C@@]4(O)[C@@H](C2)N(CC2CC2)CC[C@]314
Reply: 0.005

Ask: Request - read-out Ki | tested on Mu-type opioid receptor (Cavia porcellus, UniProt P97266) | compound Cn1c2c(c3c1[C@@H]1Oc4c(O)ccc5c4[C@@]14CCN(CC1CC1)[C@H](C5)[C@]4(O)C3)CCCC2
Reply: 16.8

Ask: Request - read-out Ki | tested on Mu-type opioid receptor (Cavia porcellus, UniProt P97266) | compound Oc1ccc2c3c1O[C@H]1c4oc5ccccc5c4C[C@@]4(O)[C@@H](C2)N(CC2CC2)CC[C@]314
Reply: 18.8

Source of measurements: BindingDB's records for doi:10.1021/jm00109a027
